The measurements presented in this section are drawn from patent US10752626B2.

- MEASUREMENT_PROTOCOL: In vivo pharmacokinetics in ICR mouse
- TEST_SETTINGS: male, plasma, iv, i.v. dose of 2 mg · kg^−1, read-out: Vdss
EXPERIMENTAL_READOUT: Vd (L/kg)
Quick reminder: number only, in L/kg, skip the unit.

Enquiry: // Vd lookup, key: CCN1Cc2c(ccnc2N[C@@H](C)c2ccc(Oc3ccccc3)c(F)c2)C1=O [Compound 23]
Return: 1.49

---

- MEASUREMENT_PROTOCOL: In vivo pharmacokinetics in ICR mouse
- TEST_SETTINGS: male, plasma, iv, i.v. dose of 2 mg · kg^−1
EXPERIMENTAL_READOUT: clearance (mL/min/kg)
# output: bare number, implied unit mL/min/kg

Enquiry: Dear colleague, I am looking for the recorded clearance of the following molecule: CCN1Cc2c(ccnc2N[C@@H](C)c2ccc(Oc3ccccc3)c(F)c2)C1=O
Return: 25.4

---

- MEASUREMENT_PROTOCOL: in vitro
- TEST_SETTINGS: dog, microsomes, pH 7.4, T1/2
EXPERIMENTAL_READOUT: half-life at 1 μM (h)
Numeric only. Scale: h

Enquiry: Would you mind telling me what half-life at 1 μM value was observed for CCN1Cc2c(ccnc2N[C@@H](C)c2ccc(Oc3ccc(C)cc3)cc2)C1=O ?
Return: 1

---

- MEASUREMENT_PROTOCOL: in vitro
- TEST_SETTINGS: human, microsomes, pH 7.4, T1/2
EXPERIMENTAL_READOUT: half-life at 1 μM (min)
Give just the number in min; leave the unit off.

Enquiry: // half-life at 1 μM lookup, key: CCN1Cc2c(ccnc2N[C@@H](C)c2ccc(Oc3ccc(C)cc3)cc2)C1=O
Return: 31.8

---

- MEASUREMENT_PROTOCOL: In vivo pharmacokinetics in ICR mouse
- TEST_SETTINGS: male, plasma, iv, i.v. dose of 2 mg · kg^−1
- Procedure: The pharmacokinetic properties of the compounds of the present disclosure were assessed in ICR mice (male, 6-8 weeks, 20.0-25.3 g) after p.o. and i.v. administration. […] The mice were fasted overnight prior to treatment, but having free access to drinking water all the time. Before dosing, each mouse was weighed and the actual dose volume for each mouse was calculated by using the formula below: Dose Volume (mL) [Nominal Dose (mg·kg^−1)/Dose Concentration (mg·mL^−1)]×Animal Body Weight (kg) […]
EXPERIMENTAL_READOUT: AUC(0-t) (ng·h/mL)
State the answer as a number, implicitly in ng·h/mL.

Enquiry: For the compound shown here, CCN1Cc2c(ccnc2N[C@@H](C)c2ccc(Oc3ccccc3)c(F)c2)C1=O [Compound 23] , give the reported AUC(0-t).
Return: 1300

---

- TEST_TARGET: IDH1 R132C (Homo sapiens (Human), UniProt O75874, R132C)
- Sequence (O75874 2-414 R132C): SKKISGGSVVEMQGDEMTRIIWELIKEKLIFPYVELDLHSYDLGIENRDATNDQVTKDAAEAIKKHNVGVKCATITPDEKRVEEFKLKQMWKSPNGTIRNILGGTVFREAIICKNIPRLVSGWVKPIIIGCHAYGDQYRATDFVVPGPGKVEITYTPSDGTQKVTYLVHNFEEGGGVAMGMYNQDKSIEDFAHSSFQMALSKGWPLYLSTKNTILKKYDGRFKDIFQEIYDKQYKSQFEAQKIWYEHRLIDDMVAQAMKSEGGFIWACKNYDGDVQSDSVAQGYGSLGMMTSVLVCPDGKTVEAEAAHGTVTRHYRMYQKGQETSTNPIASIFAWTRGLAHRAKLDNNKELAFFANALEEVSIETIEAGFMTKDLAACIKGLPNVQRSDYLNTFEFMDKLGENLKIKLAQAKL
- MEASUREMENT_PROTOCOL: Improved cell-based assay: D-2-HG in HT1080 cells over-expressing D-2-HG dehydrogenase
- TEST_SETTINGS: 2.5 μM, 12 h
EXPERIMENTAL_READOUT: Inhibition ratio of D-2-HG in HT1080 cell
Be sure to follow the number with its unit.

Recorded results for 2 compounds are shown here.
[
  {
    "COMPOUND": "CCN1Cc2c(ccnc2N[C@@H](C)c2ccc(Oc3ccccc3)c(F)c2)C1=O [Compound 23]",
    "VALUE": "68.3%"
  },
  {
    "COMPOUND": "Cc1ccc(Oc2ccc([C@H](C)Nc3nccc4c3CN(C(C)C)C4=O)cc2)cc1 [Compound 31]",
    "VALUE": "68.7%"
  }
]

From here, focus on the item given below.
Enquiry: State the recorded Inhibition ratio of D-2-HG in HT1080 cell for this entry: CCN1Cc2c(ccnc2N[C@@H](C)c2ccc(Oc3ccc(C)cc3)c(F)c2)C1=O [Compound 24]
Return: 72.1%
